Hello, the source for this data is PubChem BioAssay (NCI), in case you need it.

We begin with a simple list: items and their reported TGI.
Tested on: SN12C renal
Assay Comment: NCI tumour cell line growth inhibition, 48 h
Reported Property: TGI (µM)

>>> test_value("C#CC[C@@H]1C[C@]2(C)[C@H]3CC=C4[C@H]5CC(C)(C)CC[C@]5(C(=O)NCCCCN)CC[C@@]4(C)[C@]3(C)CC[C@H]2C(C)(C)[C@H]1OC(C)=O")
3.28
>>> test_value("C=C1C(=O)O[C@H]2[C@H]1CC/C(COC(=O)N1CCC[C@H]1C(=O)Nc1ccc(OC)c(C(N)=O)c1O)=C\\CC[C@@]1(C)O[C@@H]21")
10.3
>>> test_value("Cc1cc2c3ccccc3n(C)c2c2c1C(=O)C=CC2=O")
35.9
>>> test_value("CC(CNC(Cc1ccccc1)c1ccccc1)NC(Cc1ccccc1)c1ccccc1 (stereo not drawn)")
6.38
>>> test_value("COc1cc(CNc2ccc(C(C)C)cc2)cc(OC)c1OC")
31.4
>>> test_value("COC(=O)/N=[N+](\\[O-])C(c1ccc(OC)cc1)C1CCCCC1 (stereo not drawn)")
11.3
>>> test_value("CCN(Cc1ccccc1OC)c1ccc(CO)c(Cl)c1")
23.5
>>> test_value("CC[n+]1c(/C=C/c2ccc(N(CCCl)CCCl)cc2)ccc2cc(NC(=O)/C=C/c3ccccc3)ccc21")
1.52
>>> test_value("CC[C@@H](/C=C\\CCC1(C[C@H](O)CCC=C(C)C)OCCO1)O[Si](C(C)C)(C(C)C)C(C)C")
32.8

====

Test system: DMS 273 small cell lung
Assay Comment: NCI tumour cell line growth inhibition, 48 h
We begin with a simple list: items and their reported TGI.
Reported Property: TGI

>>> test_value("COc1cc([C@@H]2c3cc4c(cc3[C@@H](NC(=O)c3ccccc3)C3COC(=O)[C@@H]32)OCO4)cc(OC)c1O (some centres undefined)")
"13.7 µM"
>>> test_value("O=C(CN1CCN(c2ccccc2)CC1)N1CCc2c([nH]c3ccccc23)C1c1cccnc1 (centres undefined)")
"> 100 µM"
>>> test_value("NCc1ccccc1C1CSCSC1")
"> 100 µM"
>>> test_value("CC1S(=O)(=O)OCCOS1(=O)=O")
"> 100 µM"

====

System: ACHN renal
Assay Comment: NCI tumour cell line growth inhibition, 48 h
We begin with a simple list: items and their reported TGI.
Reported Property: TGI

>>> test_value("COc1ccc(NC(=O)c2cc(OC)c(OC)c(OC)c2)cc1")
"> 100 µM"
>>> test_value("C=CC[C@H](C)CCC(=O)N1[C@H]2CC3CC[C@@]2(CS1(=O)=O)C3(C)C")
"> 100 µM"
>>> test_value("c1cc2c(c(-c3c4ccccc4nc4ccccc34)c1)CC1(CC2)OCCO1")
"> 100 µM"
>>> test_value("CC12Cc3cc4c(cc3C1(c1ccc([N+](=O)[O-])cc1)OCCO2)OCO4 (stereo unspecified)")
"> 100 µM"
>>> test_value("CC(=O)n1c2ccccc2c2nc3nc(Oc4ccc(C)cc4)c4ccccc4c3cc21")
"> 100 µM"
>>> test_value("O=C(N/N=C\\c1ccc2ccccc2c1)Nc1ccc([N+](=O)[O-])cc1")
"> 63.8 µM"
>>> test_value("CC(=O)NC1=C(C)C(=O)c2c(nc3n2CCC3O)C1=N (stereo unspecified)")
"37.7 µM"
>>> test_value("CN(C)c1ccc(N=Nc2ccccn2)cc1")
"> 100 µM"
>>> test_value("CNC(=S)N/N=C/c1cccc(C)n1")
"> 96.5 µM"
>>> test_value("Brc1ccc2[nH]cc(-c3nc(-c4c[nH]c5ccccc45)cs3)c2c1")
"8.75 µM"
>>> test_value("O=C(CCl)N1c2ccccc2Sc2c1ccc1ccccc21")
"3.69 µM"
>>> test_value("Clc1nc(Cl)c2ncn(Cc3ccc(COc4cccc(OCc5ccc(Cn6cnc7c(Cl)nc(Cl)nc76)cc5)c4)cc3)c2n1")
"> 100 µM"
>>> test_value("CCC12CCCC(=O)N1C(CO)C(c1ccccc1)O2 (stereo unspecified)")
"> 100 µM"
>>> test_value("CC12CCC(=O)C=C1CCC1C2C(O)CC2(C)C(c3csc(N)n3)CCC12 (stereo unspecified)")
"> 100 µM"
>>> test_value("COc1cc(/C=C/C(=O)c2sc(Nc3ccccc3)nc2C)ccc1O")
"> 100 µM"
>>> test_value("O=C1/C(=C/c2ccc(O)cc2)COc2ccc(-c3ccccc3)cc21")
"25.1 µM"
>>> test_value("Cn1nc(-c2ccccc2)c(C(=O)/C=C/c2ccccc2)c(N2CCOCC2)c1=O")
"39.9 µM"
>>> test_value("CCOC(=O)CCC(NC(=O)c1ccc(N2CCN(c3c(C)nc(N)nc3N)CC2)cc1)C(=O)OCC (stereo unspecified)")
"> 100 µM"
>>> test_value("C#CC[C@@H]1C[C@]2(C)[C@H]3CC=C4[C@H]5CC(C)(C)CC[C@]5(C(=O)NCCCCN)CC[C@@]4(C)[C@]3(C)CC[C@H]2C(C)(C)[C@H]1OC(C)=O")
"3.11 µM"
>>> test_value("O=c1oc2ccccc2n1CCN1CCCCC1")
"> 100 µM"
>>> test_value("CC/C=C\\C/C=C\\C/C=C\\CCCCCCCC(=O)OCC")
"> 100 µM"
>>> test_value("Cc1cccc2c1NC(=S)[C@@H]1CCCN1C2=O")
"> 100 µM"
>>> test_value("C(=C\\C(SCc1ccccc1)SCc1ccccc1)/c1ccccc1")
"> 10 µM"
>>> test_value("O=c1cc(-c2ccccc2)c2cc3c(=O)ccoc3cc2o1")
"> 100 µM"
>>> test_value("COc1cccc(NC(=O)CC(=O)N2N=C(C)C(N=Nc3ccc(S(=O)(=O)c4ccc(N=NC5C(=O)N(C(=O)CC(=O)Nc6cccc(OC)c6)N=C5C)cc4)cc3)C2=O)c1 (stereo unspecified)")
"> 100 µM"
>>> test_value("OCCCCCCOc1ccc(-c2cc(-c3ccccn3)nc(-c3ccccn3)c2)cc1")
"5.22 µM"
>>> test_value("Cc1ccc(C(O)c2cnc(C)n2Cc2ccccc2)cc1 (stereo unspecified)")
"> 100 µM"
>>> test_value("CCc1cc(O)c(Cl)c(C)c1Cl")
"31.5 µM"
>>> test_value("CC(=O)O[C@@H]1CC2C(C)(C)CCCC2(C)C2=C1C(=O)C(C(C)C)=CC2=O (stereo partly specified)")
"1.96 µM"
>>> test_value("CCOc1cc(NC(C)=O)ccc1C(=O)NN1C(=O)/C(=C/c2cc(OC)c(OC)c(OC)c2)N=C1c1ccccc1")
"> 100 µM"
>>> test_value("Cc1c(NC(=S)Nc2ccc(Cl)cc2)c(=O)n(-c2ccccc2)n1C")
"> 100 µM"
>>> test_value("CCC(C)C(=O)c1c(O)c(C/C=C(\\C)CCC=C(C)C)c(O)c2c(C(O)CC)cc(=O)oc12 (stereo unspecified)")
"8.38 µM"
>>> test_value("CC(CNC(Cc1ccccc1)c1ccccc1)NC(Cc1ccccc1)c1ccccc1 (stereo unspecified)")
"8.85 µM"
>>> test_value("Cc1ccc2c(n1)C(=O)c1ccccc1C2=O")
"> 100 µM"
>>> test_value("CN(C)CCCN1CCc2c([nH]c3ccccc23)C1c1cccnc1 (stereo unspecified)")
"> 100 µM"
>>> test_value("CC(=O)OC1c2ccccc2CCCCCCC12OCCO2 (stereo unspecified)")
"> 100 µM"
>>> test_value("Clc1nc(Cl)c2c(ncn2C/C=C\\Cn2cnc3c(Cl)nc(Cl)nc32)n1")
"3.33 µM"
>>> test_value("NCc1ccc(C(=O)O)cc1")
"> 100 µM"
>>> test_value("COc1ccc2c3c1OC1c4[nH]c5ccccc5c4CC4(O)C(C2)N(C)CCC314 (stereo unspecified)")
"75.6 µM"
>>> test_value("CCOC(=O)C(NC(=O)Nc1ccc(Cl)c(Cl)c1)C(F)(F)F (stereo unspecified)")
"> 100 µM"
>>> test_value("C[C@H]1[C@H](C)CC[C@]2(C(=O)O)CC[C@]3(C)C(=CC[C@@H]4[C@@]5(C)C/C(=C/c6cccnc6)[C@H](O)C(C)(C)[C@@H]5CC[C@]43C)[C@H]12")
"> 100 µM"

====

Tested on: NCI/ADR-RES ovarian
Assay Comment: NCI tumour cell line growth inhibition, 48 h
Reported Property: TGI (µM)

>>> test_value("Cc1ccc(N=C2C(=O)C3=C(OC(C)(C)CC3)c3ccccc32)cc1")
1.75
>>> test_value("CSC1=C(c2ccc(Cl)cc2)SC(N2CCCCC2)N1c1ccc([N+](=O)[O-])cc1 (stereo not given)")
62.3

====

Test system: TK-10 renal
Assay Comment: NCI tumour cell line growth inhibition, 48 h; in the data active = GI50 below about 0.43 µM; inactive = the rest
Outcomes: yes (active), no (inactive)

>>> category("C[C@@H]1COCCN1c1cc(C2(S(C)(=N)=O)CC2)nc(-c2ccnc3[nH]ccc23)n1 (stereo not given in full)")
"no"
>>> category("Clc1nc(Cl)c2c(ncn2C/C=C\\Cn2cnc3c(Cl)nc(Cl)nc32)n1")
"no"
>>> category("COc1c(N2CCN(CN3C(=O)C(=Nc4ccc(S(=O)(=O)Nc5ncccn5)cc4)c4ccccc43)C(C)C2)c(F)cc2c(=O)c(C(=O)O)cn(C3CC3)c12 (stereo not given)")
"no"
>>> category("Oc1ccc(CCCCCCc2ccc(O)cc2)cc1")
"no"
>>> category("CC[C@H](CC#N)OC(=O)N[C@@H](C)c1cccc(NC(=O)Nc2ccc(-c3cnco3)c(OC)c2)c1")
"yes"
>>> category("CN(C)c1ccc2cc(-c3ccccc3F)c(N)nc2c1")
"no"
>>> category("CC(=O)O[C@@H]1CC2C(C)(C)CCCC2(C)C2=C1C(=O)C(C(C)C)=CC2=O (stereo not given in full)")
"no"
>>> category("O=C(CCl)N1c2ccccc2Sc2c1ccc1ccccc21")
"no"
>>> category("CN(CCOc1ccc(C#N)cc1)CCOc1ccc(C#N)cc1")
"no"
>>> category("CCCCCCCCCCCC[n+]1ccc(CCCCCCCCC)cc1")
"no"
